test system: SN12C renal; assay: NCI-60 one-dose screen, 48 h (100 = growth as untreated, 0 = no growth, -100 = all killed); conditions: 10 µM unless noted
About 83,000 compounds went through this panel and 20% of them were active in at least one assay; those are over-represented in the sample as a whole.

[
  {
    "COMPOUND": "COc1ccc2c(c1)OC1=C(C(=O)OC1)C2c1cc(OC)c2c(c1)OCCO2 (stereo unspecified)",
    "growth [%]": 27.5
  },
  {
    "COMPOUND": "O=C(O/C(=C/c1ccccc1)C(F)(F)F)c1ccccc1",
    "growth [%]": 99.3
  },
  {
    "COMPOUND": "COc1cc(NC(=O)CSc2nc3ccc(Cl)cc3c(=O)n2Cc2ccccc2)cc(OC)c1OC",
    "growth [%]": 88.5
  },
  {
    "COMPOUND": "FC(F)(F)c1nn[nH]n1",
    "growth [%]": 105
  },
  {
    "COMPOUND": "Clc1cccc(CNc2c3ccccc3nc3ccccc23)c1",
    "growth [%]": 23.6
  },
  {
    "COMPOUND": "CC(C)(C)c1ccc(C(=O)Nc2sc3cc(O)ccc3c2C(N)=O)cc1",
    "growth [%]": 78
  },
  {
    "COMPOUND": "c1cc2c(cc1-c1cnc3nonc3n1)OCO2",
    "growth [%]": 103
  },
  {
    "COMPOUND": "COc1cc(/C=N/NC(=O)Cn2c(-c3ccc(C)o3)nc3ccccc32)ccc1OCc1ccccc1",
    "growth [%]": 95.4
  },
  {
    "COMPOUND": "COc1ccc(-c2cnc(-c3ccncc3-c3cccc(OC)c3)o2)cc1",
    "growth [%]": 15
  },
  {
    "COMPOUND": "CC(C)CCSc1nc(-c2ccc(F)cc2)c(C#N)c(N2CCCCC2)n1",
    "growth [%]": 107
  },
  {
    "COMPOUND": "CCOC(=O)C1C(=O)C=C(c2ccccc2)CC1c1sc(N(C)Cc2ccccc2)nc1Cl (stereo unspecified)",
    "growth [%]": 94.3
  }
]

Cited source for all entries: PubChem BioAssay (NCI)
